# subject of test: KRAS (Homo sapiens, UniProt P01116)
# Construct: His6-tagged human KRas Isoform 4B (residues 1-169); His6; made in house; host or cells: E. coli BL21(DE3), PQE80 vector
# Sequence (P01116 1-169 isoform P01116-2): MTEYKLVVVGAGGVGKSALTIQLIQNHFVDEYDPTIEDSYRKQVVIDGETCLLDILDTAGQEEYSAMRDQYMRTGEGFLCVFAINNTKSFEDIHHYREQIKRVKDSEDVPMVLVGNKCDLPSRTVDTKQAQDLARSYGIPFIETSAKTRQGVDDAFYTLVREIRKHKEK
# procedure text: B-RAP surface immunofluorescent assay, PCC ligand KRas EC50
# Assay type: binding
# setup conditions: 10 μM KRas well of plate #1, pixel by pixel, middle part of centroid
quantity kind: avg F635, Middle Part Centroid
Just the number, please, no unit attached.

Worked cases, avg F635, Middle Part Centroid given:
| compound | avg F635, Middle Part Centroid |
| --- | --- |
| CCC(C)[C@@H]1NC(=O)CNC(=O)[C@H](Cc2cnc[nH]2)NC(=O)[C@@H](N)Cc2cn(nn2)CCCC[C@@H](C(=O)NCCOCCOCCOCCOCCOCCC(=O)NCCNC(=O)CCCC[C@@H]2SC[C@@H]3NC(=O)N[C@@H]32)NC(=O)CNC(=O)[C@H](C(C)C)NC1=O (single isomer, unassigned) [Ligand L1a, HGIVG] | 20725 |
| NC(=O)CC[C@@H]1NC(=O)[C@@H](N)Cc2cn(nn2)CCCC[C@@H](C(=O)NCCOCCOCCOCCOCCOCCC(=O)NCCNC(=O)CCCC[C@@H]2SC[C@@H]3NC(=O)N[C@@H]32)NC(=O)[C@H](Cc2ccc(O)cc2)NC(=O)[C@H](Cc2ccccc2)NC(=O)[C@H](CC(N)=O)NC(=O)[C@H](CC(=O)O)NC1=O (single isomer, unassigned) [Ligand L9b, QDNFY] | 47791 |
| CCC(C)[C@@H]1NC(=O)CNC(=O)[C@H](Cc2cnc[nH]2)NC(=O)[C@@H](N)Cc2cn(nn2)CCCC[C@@H](C(=O)NCCOCCOCCOCCOCCOCCC(=O)NCCNC(=O)CCCC[C@@H]2SC[C@@H]3NC(=O)N[C@@H]32)NC(=O)CNC(=O)[C@H](C(C)C)NC1=O (single isomer, unassigned) [Ligand L1b, HGIVG] | 24245 |

Fill in the blank: the reported avg F635, Middle Part Centroid of CC(C)[C@@H]1NC(=O)[C@H](CCC(=O)O)NC(=O)CNC(=O)[C@@H](N)Cc2cn(nn2)CCCC[C@@H](C(=O)NCCOCCOCCOCCOCCOCCC(=O)NCCNC(=O)CCCC[C@@H]2SC[C@@H]3NC(=O)N[C@@H]32)NC(=O)[C@@H]2CCCN2C(=O)[C@H](C(C)C)NC1=O (single isomer, unassigned) [Ligand L3b, GEVVP] is ____.
16390

Follow-up item: CC(C)[C@@H]1NC(=O)[C@H](CCC(=O)O)NC(=O)CNC(=O)[C@@H](N)Cc2cn(nn2)CCCC[C@@H](C(=O)NCCOCCOCCOCCOCCOCCC(=O)NCCNC(=O)CCCC[C@@H]2SC[C@@H]3NC(=O)N[C@@H]32)NC(=O)[C@@H]2CCCN2C(=O)[C@H](C(C)C)NC1=O (single isomer, unassigned) [Ligand L3a, GEVVP]
8430

// repeat for CC(C)[C@@H]1NC(=O)[C@@H](N)Cc2cn(nn2)CCCC[C@@H](C(=O)NCCOCCOCCOCCOCCOCCC(=O)NCCNC(=O)CCCC[C@@H]2SC[C@@H]3NC(=O)NC32)NC(=O)[C@H](Cc2ccc(O)cc2)NC(=O)[C@@H]2CCCN2C(=O)[C@H](C(C)C)NC(=O)[C@H](CCC(N)=O)NC1=O (single isomer, unassigned) [Ligand L7a, VQVPY] and report
37152

Repeat with CC(C)[C@@H]1NC(=O)[C@@H](N)Cc2cn(nn2)CCCC[C@@H](C(=O)NCCOCCOCCOCCOCCOCCC(=O)NCCNC(=O)CCCC[C@@H]2SC[C@@H]3NC(=O)N[C@@H]32)NC(=O)[C@H](Cc2ccc(O)cc2)NC(=O)[C@@H]2CCCN2C(=O)[C@H](C(C)C)NC(=O)[C@H](CCC(=O)O)NC1=O (single isomer, unassigned) [Ligand L4a, VEVPY]
11181

====

# subject of test: KRAS (Homo sapiens, UniProt P01116)
# Construct: His6-tagged human KRas Isoform 4B (residues 1-169); His6; made in house; host or cells: E. coli BL21(DE3), PQE80 vector
# procedure text: B-RAP surface immunofluorescent assay, PCC ligand KRas EC50
# Assay type: binding
# setup conditions: 10 μM KRas well of plate #1, pixel by pixel, full lane
Numbered stars: 1 amine (or outer) side, 2 acyl side, 3 side chain; on linkers, the order of the positions; unused ones are H or OH. Bridge positions count the residues as written; N and C are the ends. Square brackets hold non-standard residues; d marks the D form. Triazole bridges read from a SMILES are 1,4-linked. Peptide text beside a SMILES is read from it. * marks the point of attachment. Biotin = O=C1N[C@H]2[C@H](CS[C@H]2CCCCC(=O)*)N1; Lys(N3) = [N-]=[N+]=NCCCC[C@H](N)C(=O)O; Ethylenediamine = C(CN[*:2])N[*:1]; PEG5 = NCCOCCOCCOCCOCCOCCC(=O)O; Pra = C#CC[C@H](N)C(=O)O
The following compounds are listed with their measured Avg F635, Full Lane values.
Lab note: record just the number, no unit beside it.

Field: example entries. Status: answers known.
| compound | numeric value |
| --- | --- |
| CC(C)[C@@H]1NC(=O)[C@@H](N)Cc2cn(nn2)CCCC[C@@H](C(=O)NCCOCCOCCOCCOCCOCCC(=O)NCCNC(=O)CCCC[C@@H]2SC[C@@H]3NC(=O)N[C@@H]32)NC(=O)[C@H](Cc2ccc(O)cc2)NC(=O)[C@@H]2CCCN2C(=O)[C@H](C(C)C)NC(=O)[C@H]([C@@H](C)O)NC1=O [Ligand L6] (H-[Pra]VTVPY[Lys(N3)][PEG5]-{Ethylenediamine-Biotin}; triazole 1-7) | 15968 |
| NC(=O)CC[C@@H]1NC(=O)[C@@H](N)Cc2cn(nn2)CCCC[C@@H](C(=O)NCCOCCOCCOCCOCCOCCC(=O)NCCNC(=O)CCCC[C@@H]2SC[C@@H]3NC(=O)N[C@@H]32)NC(=O)[C@H](Cc2ccc(O)cc2)NC(=O)[C@H](Cc2ccccc2)NC(=O)[C@H](CC(N)=O)NC(=O)[C@H](CC(=O)O)NC1=O (single isomer, unassigned) [Ligand L9b, QDNFY] | 41812 |
| CC(C)[C@@H]1NC(=O)[C@H](CCC(=O)O)NC(=O)[C@H](C(C)C)NC(=O)[C@@H](N)Cc2cn(nn2)CCCC[C@@H](C(=O)NCCOCCOCCOCCOCCOCCC(=O)NCCNC(=O)CCCC[C@@H]2SC[C@@H]3NC(=O)N[C@@H]32)NC(=O)[C@@H]2CCCN2C(=O)[C@H](Cc2ccc(O)cc2)NC1=O (single isomer, unassigned) [Ligand L5b, VEVYP] | 31581 |
| CCC(C)[C@@H]1NC(=O)CNC(=O)[C@H](Cc2cnc[nH]2)NC(=O)[C@@H](N)Cc2cn(nn2)CCCC[C@@H](C(=O)NCCOCCOCCOCCOCCOCCC(=O)NCCNC(=O)CCCC[C@@H]2SC[C@@H]3NC(=O)N[C@@H]32)NC(=O)CNC(=O)[C@H](C(C)C)NC1=O (single isomer, unassigned) [Ligand L1b, HGIVG] | 22519 |
| CC(C)[C@@H]1NC(=O)[C@@H](N)Cc2cn(nn2)CCCC[C@@H](C(=O)NCCOCCOCCOCCOCCOCCC(=O)NCCNC(=O)CCCC[C@@H]2SC[C@@H]3NC(=O)NC32)NC(=O)[C@H](Cc2ccc(O)cc2)NC(=O)[C@@H]2CCCN2C(=O)[C@H](C(C)C)NC(=O)[C@H](CCC(N)=O)NC1=O (stereo partly shown) [Ligand L7, VQVPY] | 48537 |

Find Avg F635, Full Lane (KRAS (Homo sapiens, UniProt P01116)) for the entry CCC(C)[C@@H]1NC(=O)CNC(=O)[C@H](Cc2cnc[nH]2)NC(=O)[C@@H](N)Cc2cn(nn2)CCCC[C@@H](C(=O)NCCOCCOCCOCCOCCOCCC(=O)NCCNC(=O)CCCC[C@@H]2SC[C@@H]3NC(=O)N[C@@H]32)NC(=O)CNC(=O)[C@H](C(C)C)NC1=O (single isomer, unassigned) [Ligand L1a, HGIVG]
18768

Also, CC(C)[C@@H]1NC(=O)[C@H](CCC(=O)O)NC(=O)CNC(=O)[C@@H](N)Cc2cn(nn2)CCCC[C@@H](C(=O)NCCOCCOCCOCCOCCOCCC(=O)NCCNC(=O)CCCC[C@@H]2SC[C@@H]3NC(=O)N[C@@H]32)NC(=O)[C@@H]2CCCN2C(=O)[C@H](C(C)C)NC1=O (single isomer, unassigned) [Ligand L3a, GEVVP] please.
7151
